- test-description: yeast display, Sf9 membrane polyspecificity reagent, FACS + sequencing; frameworks hold sequencing errors
endpoint: polyreactivity (PSR sort gate)

INSERT INTO results (residue_string, endpoint, endpoint_value) VALUES
  ('QVQHVESGGGLVQAGGSLRLSCAASGSTFGPNAMGWYRQAPGKERELVAAINTRGGSTYYADSVKGRFTISRDNAKNTVYLQMNSLKPEDTAVYYCAAEYVVWYLDRFNYWGQGTQVTVSS', 'polyreactivity (PSR sort gate)', 'high polyreactivity'),
  ('QVQLQESGGGLVQAGGSLRQSYAASGYIFPSLAMGWYRQAPGKESEFVAAIGRGSTNNYADSVKGRFTISRDNAKNTAYQQMNSLKPEDTAVYYCAAAASPLTRHLYWGQGTQVTVSS', 'polyreactivity (PSR sort gate)', 'low polyreactivity'),
  ('QVQLVESGGGLVQAGGSLRLSCAASGRIFRRYAMGWYRQAPGKERELVAAISWSGGATYYADSVKGRFTISRDNAKNTVYLQMNSLKPEDTAVYYCAALRYQQCRAYDYWGQGTLVTVSS', 'polyreactivity (PSR sort gate)', 'high polyreactivity'),
  ('HVQLVESGGGLVQAGGSLRLSCAASGNTFTEYAMGWYRQAPGKERELVASITGSGGSTYADSVRGRFTISRDNAKNTVYLQMNSLKPEDTAVYYCAKDPRYEYVGSEYGYWGQGTQVTVSS', 'polyreactivity (PSR sort gate)', 'low polyreactivity'),
  ('QVQLVESGGGLVQAGGSLRLSCAASVSTFANNAMGWYRQAPGKERELVASITTDGSTNYADSVKGRFTISRDNAKNTVYLQMNSLKPEDTAVYYCAADYHTPSSFAPIELYDYWGQGTQVTVSS', 'polyreactivity (PSR sort gate)', 'low polyreactivity');

---

- test-description: yeast display, Sf9 membrane polyspecificity reagent, FACS + sequencing; frameworks hold sequencing errors
endpoint: polyreactivity (PSR sort gate)

INSERT INTO results (residue_string, endpoint_value) VALUES
  ('QVQLVESGGRLVQAGGSLSISCAASGSTFTSYSMGWYRQAPGKERELVAAIRRIGGDTYYADSVKGRFTISRDNAKNTVYLQMNSLKPEDTAVNYCAAVRWRSEPYWYHAMEHWGQGTQVTVSS', 'low polyreactivity'),
  ('QVQLVESAGGLVQAGGSLSLSCAASGITFIPNPMGWYRQAPGKERELVAAISISGGRTYYADSVKGRFTISRDNAKNTVYLQMNSLKPEDTAVYYCAADRADFFVIRTIDPYDYWGQGTQVTVSS', 'low polyreactivity');

---

- test-description: yeast display, Sf9 membrane polyspecificity reagent, FACS + sequencing; frameworks hold sequencing errors
endpoint: polyreactivity (PSR sort gate)

INSERT INTO measurements (residue_string, endpoint, endpoint_value) VALUES
  ('QVQLVESGGGLVPAGGSLRLSCAASGSTFCPYAMGWYRQAPGKERELVADITSSGGSTYYADSVKGRFTISRDNAKNTVYLQMNSLKPEDTAVYYCAADWSNLGAYDYWGQRTQVTVSS', 'polyreactivity (PSR sort gate)', 'low polyreactivity'),
  ('QVQLVESGGGLDQAGGSLRLSCAASGSTFNWYTMGWYRQAPGKERELVAAISLNGGRTYYADSVKGRFTISRDNAKNTVYFQMNSLKQEDTAVYYCAAQISFYFAQYNLARFRGYYWGQGTQVTVSS', 'polyreactivity (PSR sort gate)', 'high polyreactivity'),
  ('QVQLQESGGGLVQADGSLRLSCAASGSIFGYYYMGWYRQAPGKDRELVATINICGITNYADSVKGRFTISRDNAKNTVYLQMNSLKPDDTAVYYCAADEYAQRDLGYWGQGTQVTVSR', 'polyreactivity (PSR sort gate)', 'low polyreactivity'),
  ('QVQLVESGGGLVQAGGSLRLSCAASGYTFKSYALGWYRQAPGKERELVASISNDGSTNYADSVKGRFTISRDNAKNTVYLQMNSLKPEDTAVYYCNADFYDAPSQWARTGFDYWGQGTQVTVSS', 'polyreactivity (PSR sort gate)', 'low polyreactivity'),
  ('QVQLQESGGGLVQAGDSQRLSCAASGNIFRFTDMGWYRQAPGKERELVAAINAGSTTYYADSVKGRFTISRDNAKNTVYLQMNSLKPEDTAVYYCAVYYLGSGTFGYWGQGAQVTVSS', 'polyreactivity (PSR sort gate)', 'high polyreactivity'),
  ('QVQLVESGGGLVQEGGSLRLICAASGRTFVYNTMGWYRQAPGKERELVAAITRSGDSTYDADSVKGRFTISRDTAKITVYIHMKSLKPDDTGVYYCNAVSNRYWLKDYWGQGTQVTVSS', 'polyreactivity (PSR sort gate)', 'high polyreactivity'),
  ('QVQLVESGGGLVQAGCSLRLSCAASGGTFRSNAMGWYRKAPGKERELVAASTNYADSVKGRFTISRDNAKNTVYLQMNSLKPEDTAVYYCAAGPTDSQTGMDYWGQGTQVTVSS', 'polyreactivity (PSR sort gate)', 'low polyreactivity'),
  ('QVQLVESGGGLVQAGGSLRLSCAASGSIFFRYAMGWYRQAPGKERELVATIRSSGGRTHYADSVKGRFTISRDNAKNTVYLQMHSLKPEDTAVYYCHYGVYQYPQDYDYWGQGTQVTVSS', 'polyreactivity (PSR sort gate)', 'low polyreactivity'),
  ('QVQLVESGGGLVQAGGSLRLSCAASGSIFSDNAMGWYRQAPGKERELVAAITYSGGRTSYADSVKGRFTISRDNAKNTVYLQMNSLKPEDTAVYYCAVGSHSRSSNSYYYWGQGTQVTVSS', 'polyreactivity (PSR sort gate)', 'low polyreactivity'),
  ('QVQLVESGGGLVQAGGSLRLSCAASGSIFSRNAMGWYRQAPGTERELVAAITDSTGTTYYADSVKGRFTISRDNAKNTVYLQMNSLKPEDTAVYYCNAVGVPQGNFYVRGDDYWGQGTQVTVSS', 'polyreactivity (PSR sort gate)', 'low polyreactivity'),
  ('QVQLVESGGGLVQAGGSLRLICAASGRIFSGNTMGWYRQAPGKERELVAAISKSGGRTYYADSVKGRFTISRDNAKYTFYLQMNSLKPEDTAVYYCNADYRSHYLYDYWGQGTQVTVSS', 'polyreactivity (PSR sort gate)', 'low polyreactivity'),
  ('QVQLVESGGGLVQAGGSLRLSCAASGSIFDHTNAMGWYRQAPGKERELVAAITSGSSTNYADSVKGRFTISRDNAKNTVYLQMNSLKPEDTAVYYCNADRFHSGIFDYWGQGTQVTVSS', 'polyreactivity (PSR sort gate)', 'low polyreactivity'),
  ('QVQLVESGGGLVQAGGSLRLSCAASGITFRKYAMGWYRKAPGKERELVAAISVSGGSTYYADSVKGRFTISRDNAKNTVYLQMNSLKPEDTAVYYCATGRSTDKGYYYWGQGTQVTVSS', 'polyreactivity (PSR sort gate)', 'high polyreactivity'),
  ('QVQLVESGGGLVQAGGSLRLSCAASGRIFYDNAMGWYRQAPGKERELVAAISYSGDSTYYADSVKGRFTISRDNAKNTVYLQMNSLKPEDTAVYYCAAVYISQGAFAYDYWGQGTQVTVSS', 'polyreactivity (PSR sort gate)', 'low polyreactivity'),
  ('QVQLVESAGGLVQAGGSLRLSCAASGSTLYPYDMGWYRQAPGKERELVAAIDSGGSTNYADSVKGRFTISRDNAKNTVYLQMNSLKPEDTAVYYCAADASGENDYWGQGTQVTVSS', 'polyreactivity (PSR sort gate)', 'low polyreactivity'),
  ('QVQLVESGGGLVQAGGSLRLSCAASGFTFPWYAMGWYSQAPGKERELVAAITSGGGSTYYADSVKGRFTISRDYAKNTVYLQMNSLKPEDTAVYYCAAVPALKWYGYEYWGQGTQVTVSS', 'polyreactivity (PSR sort gate)', 'high polyreactivity'),
  ('QVQLVESGGGLVQAGGTLRLSCAASGFTFYSNTMGWYRQAPGKERELFAAITRTGVSTYYADSVKGRFTISRDNAKNTVYLQMNSLKPEDTAVYYCAALVKGQGTVHRYYYLGQGTQVTVSS', 'polyreactivity (PSR sort gate)', 'high polyreactivity'),
  ('QFQLLESGGGLVQAGGSLRLSCADSGSIYLYYARGWYRQAPGKESELVAAITYSGVSTYDAVSVKGRFTISRDTSNNTVYLQMNSLKPEDNAFYDCARRWNAFGSKGVYWGQGTQVTVSS', 'polyreactivity (PSR sort gate)', 'high polyreactivity'),
  ('QVQLVESGGGLVQAGGSLRLSCAASGSIFWVYAMGWYRQAPGKERELVAAISSSGGRTYYADSVKGRFTISRDNAKNTVYLQMNSLKPEDTAVYYCASRWKTGYNYWGQGTQVTVSS', 'polyreactivity (PSR sort gate)', 'high polyreactivity'),
  ('QVQLVESVGGLVQAGGSLRLICAASGSIFIGYAMGWYRQAPGKERELVAAISNSGGRTYYADSVKGRFTISRDYAKNTVYLQMNSLKPDDTAVYYCAARLRYRGRRYDYWGQGTQVTVSS', 'polyreactivity (PSR sort gate)', 'high polyreactivity'),
  ('QVQLVESGGGLVQAGGSLRLSCADSGRIFVLYAMGWYRQAPGKERELVAAISRSSTSTYYADSVKGRFTISRDNAKNTGYLQMNSLKPEDTAVYYCAARGRYAYPRYGYYPVNYWGQGTQVTVSS', 'polyreactivity (PSR sort gate)', 'high polyreactivity');
